These entries and their values trace back to patent US20030078221.

Below, each entry is listed with its recorded Kd.
# target.desc: Complement C5 (Homo sapiens, UniProt P01031;P01031 P01031:19-673,P01031:678-1676)
# test.name: filter; MgPBS 37C
# condition.label: tags: Quidel

binder	unit.descriptor	Kd
GGGAGGAGGAUCGGUGUUCAGCAUUCAGAUCUUCAGACGACUCGCCCGA (ssRNA, 2'-F pyrimidines) [E4c]	nM	50
F8 (ssRNA, 2'-F pyrimidines) RNA: GGGAGGACGAUGCGGUCUCAUGCGCCGAGUGUGAGUUUACCUUCGUCAGACGACUCGCCCGA	nM	30
A6 (ssRNA, 2'-F pyrimidines) RNA: GGGAGGACGAUGCGGUCCGGCGCGCUGAGUGCCGGUUUAUCCUCGUCAGACGACUCGCCCGA	nM	35
